The measured values listed here are drawn from ChEMBL document CHEMBL1961873.

- SYSTEM: Vascular endothelial growth factor receptor 3 (Homo sapiens);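 further: mean FLT4 inhibition, averaged across replicates, from the GSK PKIS kinase inhibitor screen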
- CONDITION_DESCRIPTION: at 1 µM
MEASUREMENT_TYPE: inhibition (%)

| COMPOUND | SYSTEM | VALUE_UNITS | EXPERIMENTAL_VALUE |
| --- | --- | --- | --- |
| NS(=O)(=O)c1cccc(-c2ccc3c(NC(=O)C4CC4)n[nH]c3c2)c1 | Vascular endothelial growth factor receptor 3 (Homo sapiens) | % | 5.11 |
| CC1=C(C(=O)Nc2ccc3[nH]ncc3c2)C(c2ccc3ccccc3c2)CC(=O)N1 (stereo not given) | Vascular endothelial growth factor receptor 3 (Homo sapiens) | % | 3.27 |
| COc1cc2c(cc1Nc1nc(N3CCc4ccccc43)c3cc[nH]c3n1)N(C(=O)CN(C)C)CC2 | Vascular endothelial growth factor receptor 3 (Homo sapiens) | % | 13.7 |
| COc1ccc(-c2coc3ncnc(N)c23)cc1 | Vascular endothelial growth factor receptor 3 (Homo sapiens) | % | -0.08 |
| CCN1CCC(CC(=O)Nc2n[nH]c3nc(-c4cccs4)c(Br)cc23)CC1 | Vascular endothelial growth factor receptor 3 (Homo sapiens) | % | 2.51 |
| COc1cccc(-n2ncc3c(N/N=C/c4cccc(F)c4)ncnc32)c1 | Vascular endothelial growth factor receptor 3 (Homo sapiens) | % | -1.89 |
| CCn1c(-c2nonc2N)nc2c(C#CC(C)(C)O)nc(CN3CCCC3)cc21 | Vascular endothelial growth factor receptor 3 (Homo sapiens) | % | 5.17 |
| CS(=O)(=O)CCNCc1ccc(-c2ccc3ncnc(Nc4ccc(OCc5cccc(F)c5)c(C(F)(F)F)c4)c3c2)o1 | Vascular endothelial growth factor receptor 3 (Homo sapiens) | % | -1.42 |
| CCCN1CCC(Oc2cc(Nc3nc(Nc4cccc(F)c4C(N)=O)c4cc[nH]c4n3)c(OC)cc2Cl)CC1 | Vascular endothelial growth factor receptor 3 (Homo sapiens) | % | 14.6 |
| NC(=O)c1ccc(-c2nc(-c3ccccn3)c(-c3ccc4c(c3)OCO4)[nH]2)cc1 | Vascular endothelial growth factor receptor 3 (Homo sapiens) | % | -0.31 |

###

- SYSTEM: BDNF/NT-3 growth factors receptor (Homo sapiens);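 further: each value is a mean percent inhibition of TrkB kinase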
- CONDITION_DESCRIPTION: at 0.1 µM

| COMPOUND | VALUE_UNITS | inhibition |
| --- | --- | --- |
| Cc1nnc(-c2ccc(C)c(-c3ccc(C(=O)Nc4cccc(C#N)c4)cc3)c2)o1 | % | 1.33 |
| CC1=C(C(=O)Nc2ccc3[nH]ncc3c2)C(c2ccc(Cl)c(Cl)c2)CC(=O)N1 (stereo not given) | % | 1.67 |
| [O-][S+]1CCN(Cc2ccc(-c3ccc4ncnc(Nc5ccc(OCc6ccccc6)c(F)c5)c4c3)o2)CC1 | % | 1.84 |
| COc1cc2ncn(-c3cc(O[C@H](C)c4ccccc4Cl)c(C(N)=O)s3)c2cc1OC | % | 8.25 |
| CCCN1CCC=C(c2ccc(Nc3nc(Nc4ccccc4C(N)=O)c4cc[nH]c4n3)c(C)c2)C1 | % | 3.01 |

###

- SYSTEM: Phosphatidylinositol 4,5-bisphosphate 3-kinase catalytic subunit delta isoform (Homo sapiens);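 further: reported values are mean percent inhibition of PI3K-delta activity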
- CONDITION_DESCRIPTION: at 1 µM
MEASUREMENT_TYPE: inhibition (%)

| COMPOUND | MEASUREMENT_TYPE | EXPERIMENTAL_VALUE |
| --- | --- | --- |
| CCN1CCC(CC(=O)Nc2n[nH]c3nc(-c4cccs4)c(Br)cc23)CC1 | inhibition | 2.28 |
| COc1cccc(-n2ncc3c(N/N=C/c4cccc(F)c4)ncnc32)c1 | inhibition | 5.82 |
| COc1ccccc1Nc1ncc(-c2ccccc2)o1 | inhibition | 2.27 |
| CC1=C(C(=O)Nc2ccc3[nH]ncc3c2)C(c2ccc(F)cc2)NC(=O)N1 (stereo not drawn) | inhibition | 3.62 |
| CCn1c(-c2nonc2N)nc2ccncc21 | inhibition | 2.13 |
| NS(=O)(=O)c1ccc(N/N=C2\C(=O)Nc3ccc(C(=O)NCCc4c[nH]cn4)cc32)cc1 | inhibition | 2.03 |
| O=C(Nc1n[nH]c2nc(-c3ccco3)c(Br)cc12)C1CC1 | inhibition | 3.08 |
| CNC(=O)c1cncc(/C=C/c2c(Cl)cccc2Cl)c1 | inhibition | 0.66 |
| O=C1NC(=O)C(c2cccc(Cl)c2)=C1Nc1ccc(O)c(Cl)c1 | inhibition | 4.17 |
| O=C1NC(=O)C(c2ccc(Cl)cc2)=C1Nc1ccc(Cl)c(C(=O)O)c1 | inhibition | 2.76 |
| CC(=O)Nc1cccc(C#Cc2cncnc2Nc2ccc(OCc3cccc(F)c3)c(Cl)c2)n1 | inhibition | -0.16 |
| CCn1c(-c2nonc2N)nc2c(N3CCCC3)nccc21 | inhibition | 0.29 |
| NC(=O)c1ccc(-c2nc(-c3ccccn3)c(-c3ccc4c(c3)OCO4)[nH]2)cc1 | inhibition | 2.45 |
| CCn1c(-c2nonc2N)nc2cncc(C(=O)N3CCNCC3)c21 | inhibition | 2.58 |
| COc1cc(C=NNc2ncnc3c2cnn3-c2ccccc2)ccc1O | inhibition | 18 |
| O=C1NC(=O)C(N2CCc3ccccc32)=C1c1ccc(Cl)cc1 | inhibition | 5.56 |
| CCCN1CCC=C(c2ccc(Nc3nc(Nc4ccccc4C(N)=O)c4cc[nH]c4n3)c(C)c2)C1 | inhibition | 17.8 |
| CCn1c(-c2nonc2N)nc2cncc(C(=O)N3CC[C@H](N)C3)c21 | inhibition | 3.95 |

###

- SYSTEM: Proto-oncogene tyrosine-protein kinase receptor Ret (Homo sapiens) (UniProt P07949);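 further: reported figure is the mean of RET inhibition measurements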
- Sequence (P07949 whole entry): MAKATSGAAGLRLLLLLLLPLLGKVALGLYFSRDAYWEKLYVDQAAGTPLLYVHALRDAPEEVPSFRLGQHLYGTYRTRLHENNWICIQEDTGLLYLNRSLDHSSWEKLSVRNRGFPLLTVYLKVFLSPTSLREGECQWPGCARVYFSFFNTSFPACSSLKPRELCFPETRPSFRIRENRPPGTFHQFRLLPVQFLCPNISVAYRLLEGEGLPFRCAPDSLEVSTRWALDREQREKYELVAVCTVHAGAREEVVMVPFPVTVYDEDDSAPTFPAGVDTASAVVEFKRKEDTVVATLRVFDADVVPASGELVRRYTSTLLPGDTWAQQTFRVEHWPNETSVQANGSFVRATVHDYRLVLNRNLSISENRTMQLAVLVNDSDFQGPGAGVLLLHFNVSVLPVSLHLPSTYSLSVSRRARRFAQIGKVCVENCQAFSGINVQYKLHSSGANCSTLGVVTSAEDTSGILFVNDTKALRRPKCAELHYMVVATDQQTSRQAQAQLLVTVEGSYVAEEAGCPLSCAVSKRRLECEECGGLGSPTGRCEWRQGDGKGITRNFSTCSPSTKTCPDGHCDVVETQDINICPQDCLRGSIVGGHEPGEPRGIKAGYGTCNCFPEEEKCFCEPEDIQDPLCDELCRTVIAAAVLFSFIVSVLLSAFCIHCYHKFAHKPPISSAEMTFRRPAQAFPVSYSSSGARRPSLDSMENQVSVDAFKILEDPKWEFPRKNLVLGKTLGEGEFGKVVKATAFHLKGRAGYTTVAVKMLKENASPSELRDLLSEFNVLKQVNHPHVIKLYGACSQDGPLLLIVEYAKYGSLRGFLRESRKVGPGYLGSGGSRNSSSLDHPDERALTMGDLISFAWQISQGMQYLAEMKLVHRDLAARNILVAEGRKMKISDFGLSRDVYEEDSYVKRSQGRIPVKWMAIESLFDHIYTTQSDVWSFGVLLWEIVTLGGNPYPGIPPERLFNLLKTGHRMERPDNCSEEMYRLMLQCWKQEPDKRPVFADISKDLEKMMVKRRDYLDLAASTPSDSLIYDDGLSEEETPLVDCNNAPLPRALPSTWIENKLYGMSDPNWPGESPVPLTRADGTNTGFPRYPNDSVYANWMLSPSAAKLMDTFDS
- CONDITION_DESCRIPTION: at 0.1 µM
MEASUREMENT_TYPE: inhibition (%)

| MOLECULE | MEASUREMENT_TYPE | EXPERIMENTAL_VALUE |
| --- | --- | --- |
| COc1cc(C)c(NC(=O)CN(C)C)cc1Nc1nc(Nc2cccc(F)c2C(N)=O)c2cc[nH]c2n1 | inhibition | 1.91 |
| CC(C)=Cc1cccc2c1/C(=N/Nc1ccc(S(N)(=O)=O)cc1)C(=O)N2 | inhibition | 14.8 |
| [O-][S+]1CCN(Cc2ccc(-c3ccc4ncnc(Nc5ccc(OCc6ccccc6)c(F)c5)c4c3)o2)CC1 | inhibition | 6.29 |
| CS(=O)(=O)CCNCc1ccc(-c2ccc3ncnc(Nc4ccc(OCc5cccc(F)c5)c(C(F)(F)F)c4)c3c2)o1 | inhibition | 6.1 |
| Cc1nnc(-c2ccc(C)c(-c3ccc(C(=O)Nc4cccc(C#N)c4)cc3)c2)o1 | inhibition | 7.9 |
| CCn1c(-c2nonc2N)nc2cnc(Oc3cccc(NC(=O)c4ccc(OCCN5CCOCC5)cc4)c3)cc21 | inhibition | 6.91 |
| CS(=O)(=O)CCNCc1nc(-c2ccc3ncnc(Nc4ccc(F)c(Cl)c4)c3c2)cs1 | inhibition | 4.76 |
| COc1ccc(-c2nn3ncccc3c2-c2ccnc(Nc3ccc(Cl)c(C(F)(F)F)c3)n2)cc1 | inhibition | 2.17 |
| CS(=O)(=O)CCNCc1ccc(-c2ccc3ncnc(Nc4ccc(OCc5ccccc5)c(Cl)c4)c3c2)o1 | inhibition | 4.78 |
| CCCN1CCC(Oc2cc(Nc3nc(Nc4cccc(F)c4C(N)=O)c4cc[nH]c4n3)c(OC)cc2Cl)CC1 | inhibition | 7.67 |
| CCCN1CCC=C(c2ccc(Nc3nc(Nc4ccccc4C(N)=O)c4cc[nH]c4n3)c(C)c2)C1 | inhibition | 5.97 |
| NCc1ccc(-c2nc(-c3ccc(Cl)c(O)c3)c(-c3ccncc3)[nH]2)cc1 | inhibition | 47.6 |
| CS(=O)(=O)CCN(CC#N)Cc1ccc(-c2ccc3ncnc(Nc4ccc(OCc5cccc(F)c5)c(Cl)c4)c3c2)o1 | inhibition | 0.24 |
| O=C1NC(=O)C(c2cccc(Cl)c2)=C1Nc1ccc(O)c(Cl)c1 | inhibition | 3.31 |
| CCn1c(-c2nonc2N)nc2c(C#CC(C)(C)O)nc(OC[C@@H](N)c3ccccc3)cc21 | inhibition | 7.49 |
| CCn1c(-c2nonc2N)nc2c(C#CC(C)(C)O)nc(CN3CCCC3)cc21 | inhibition | -0.08 |
| CCn1c(-c2nonc2N)nc2cncc(C(=O)N3CCNCC3)c21 | inhibition | 4.73 |
| COc1cc2c(cc1Nc1nc(N3CCc4ccccc43)c3cc[nH]c3n1)N(C(=O)CN(C)C)CC2 | inhibition | 3.49 |
| CCN1CCC(CC(=O)Nc2n[nH]c3nc(-c4cccs4)c(Br)cc23)CC1 | inhibition | 1.65 |
| N#Cc1c(NC(=O)c2cccc3ccccc23)sc2c1CCCC2 | inhibition | 5.35 |
| CC1=C(C(=O)Nc2ccc3[nH]ncc3c2)C(c2ccc(F)cc2)NC(=O)N1 (stereo not drawn) | inhibition | 6.58 |
| CC(=O)Nc1cccc(C#Cc2cncnc2Nc2ccc(OCc3cccc(F)c3)c(Cl)c2)n1 | inhibition | -1.11 |
| NS(=O)(=O)c1cccc(-c2ccc3c(NC(=O)C4CC4)n[nH]c3c2)c1 | inhibition | 2.41 |
| O=C1NC(=O)C(c2ccccc2Cl)=C1Nc1cccc(O)c1 | inhibition | 1.55 |
| COc1cc2ncn(-c3cc(OCc4ccccc4C(F)(F)F)c(C(N)=O)s3)c2cc1OC | inhibition | 14.5 |
| COc1cc2ncn(-c3cc(OCc4ccccc4Cl)c(C(N)=O)s3)c2cc1OC | inhibition | 17.7 |
| COc1cc2ncn(-c3cc(O[C@@H](C)c4ccccc4Cl)c(C(N)=O)s3)c2cc1OC | inhibition | 33.6 |
| Nc1nc(-c2ccc3c(c2)C(=Cc2cc(Br)c(O)c(Br)c2)C(=O)N3)cs1 | inhibition | 7.13 |
| Cc1nn(C)c2cc(N(C)c3ccnc(Nc4cccc(S(N)(=O)=O)c4)n3)ccc12 | inhibition | 11.9 |
| CC1=C(C(=O)Nc2ccc3[nH]ncc3c2)C(c2ccc3ccccc3c2)CC(=O)N1 (stereo not drawn) | inhibition | 20.4 |
| CS(=O)(=O)Nc1ccc(N/C=C2\C(=O)Nc3ccccc32)cc1 | inhibition | 10.4 |
| Cc1ccc(NC(=O)c2ccnc(N3CCCC3)c2)cc1-c1ccc(C(=O)NCC2CC2)cc1 | inhibition | 6.99 |
| COc1ccc(-c2coc3ncnc(N)c23)cc1 | inhibition | 4.27 |
